Task for the reader: assign each of the following molecules its reported DR/DR AA.
assay: Probe fluorescence ratio response to arachidonic acid relative to ADIFAB2; type: binding; details: arachidonic acid; response relative to ADIFAB2
Numbers only.

115I3, 72A (protein, listed as Rattus norvegicus, PEPTIDE (1)...(131) wild-type rat intestinal fatty acid binding protein) AFDGTWKVDRNENYEKFMEKMGINVVKRKLGAHDNLKLTITQEGNKFTVKESSNFRNIDVVFELGVDFAYSAADGTELTGTWTMEGNKLVGKFKRVDNGKELIAVREISGNELIITYTYEGVEAKRIFKKE    0.87

Consider the additional molecule presented here.
Ask: Output DR/DR AA of 78Y, 72A (protein, listed as Rattus norvegicus, PEPTIDE (1)...(131) wild-type rat intestinal fatty acid binding protein) AFDGTWKVDRNENYEKFMEKMGINVVKRKLGAHDNLKLTITQEGNKFTVKESSNFRNIDVVFELGVDFAYSAADGTEYTGTWTMEGNKLVGKFKRVDNGKELIAVREISGNELIQTYTYEGVEAKRIFKKE
Reply: 1.172

Source listed as patent US20060257938A1.
